- test: Solubility in non-aqueous solvents
- Format: physicochemical
- cond: organic solvent or mixture; Ethanol (EtOH); compound 1 as acetate salt
*1 amine or outer side, *2 acyl side, *3 side chain or, on linkers, in order; H or OH if unused. Where a SMILES comes first, the peptide text is derived from it. Bridges are numbered along the chain shown (N, C = ends). [ ]: non-standard residue; d: D form. The star is where a group is joined. pTerphenylCO(4''-OnC5H11) = CCCCCOc1ccc(-c2ccc(-c3ccc(C(=O)*)cc3)cc2)cc1; Orn(4R-OH,5R-OH) = O=C([C@H](C[C@@H](O)[C@@H](O)N[*:3])N[*:1])[*:2]; hTyr(3S-OH,4S-OH) = N[C@H](C(=O)O)[C@H](O)[C@@H](O)c1ccc(O)cc1; Pro(3S-OH,4S-Me) = C[C@H]1CN[C@H](C(=O)O)[C@H]1O; Hyp = O=C(O)[C@@H]1C[C@@H](O)CN1
measured.attribute: solubility

So, CCCCCOc1ccc(-c2ccc(-c3ccc(C(=O)N[C@H]4C[C@@H](O)[C@@H](O)NC(=O)[C@@H]5[C@@H](O)[C@@H](C)CN5C(=O)[C@H]([C@@H](C)O)NC(=O)[C@H]([C@H](O)[C@@H](O)c5ccc(O)cc5)NC(=O)[C@@H]5C[C@@H](O)CN5C(=O)[C@H]([C@@H](C)O)NC4=O)cc3)cc2)cc1 [anidulafungin, reference compound] ({pTerphenylCO(4''-OnC5H11)}-[Orn(4R-OH,5R-OH)]T[Hyp][hTyr(3S-OH,4S-OH)]T[Pro(3S-OH,4S-Me)]; lactam 1-C) ? Its solubility was > 17.6 mg/mL

So, CCCCCOc1ccc(-c2ccc(-c3ccc(C(=O)N[C@H]4C[C@@H](O)C(OCC[N+](C)(C)C)NC(=O)C5[C@@H](O)[C@@H](C)CN5C(=O)C([C@@H](C)O)NC(=O)C([C@H](O)[C@@H](O)c5ccc(O)cc5)NC(=O)C5C[C@@H](O)CN5C(=O)C([C@@H](C)O)NC4=O)cc3)cc2)cc1 (some centres unmarked) [compound 1] ? Its solubility was > 13.7 mg/mL

----------
- test: Solubility in aqueous buffers of varying pH
- Format: physicochemical
- cond: aqueous buffer; pH 7.4 (0.1M phosphate buffer); ambient temperature; compound 1 as acetate salt
measured.attribute: solubility (µg/mL)
State just the number; it will be interpreted in µg/mL.

So, CCCCCOc1ccc(-c2ccc(-c3ccc(C(=O)N[C@H]4C[C@@H](O)C(OCC[N+](C)(C)C)NC(=O)C5[C@@H](O)[C@@H](C)CN5C(=O)C([C@@H](C)O)NC(=O)C([C@H](O)[C@@H](O)c5ccc(O)cc5)NC(=O)C5C[C@@H](O)CN5C(=O)C([C@@H](C)O)NC4=O)cc3)cc2)cc1 (some centres unmarked) ? Its solubility was 50

----------
- Tested on: C. albicans R303
- test: mouse candidiasis infection model, IP administration, kidney fungal burden
- Assay type: in vivo
- cond: Fourth run; IP 0.5 mg/kg; kidneys 24 h after infection
- Description: The objective of these studies was to evaluate the efficacy of test compounds in the mouse candidiasis infection model. Amounts of test articles are uncorrected. […] In a typical procedure, the kidneys were collected from four mice in control group 1 (untreated) at 2 hr after infection, and from another four mice in control group 2 (untreated) at 24 hr after infection. […] The CFU/kidneys were determined from colony counts. […]
Please go through the items and note down their Mean log10 CFU/kidneys (±SEM).
State just the number; it will be interpreted in log10 CFU/kidneys.

So, CCCCCOc1ccc(-c2ccc(-c3ccc(C(=O)N[C@H]4C[C@@H](O)C(NCCOCCOCCN)NC(=O)C5[C@@H](O)[C@@H](C)CN5C(=O)C([C@@H](C)O)NC(=O)C([C@H](O)[C@@H](O)c5ccc(O)cc5)NC(=O)C5C[C@@H](O)CC5C(=O)C([C@@H](C)O)NC4=O)cc3)cc2)cc1 (stereo partly drawn) [compound 13] ? Its Mean log10 CFU/kidneys (±SEM) was 2.81

So, CCCCCOc1ccc(-c2ccc(-c3ccc(C(=O)N[C@H]4C[C@@H](O)C(NCCOCCOCCOCCOC)NC(=O)C5[C@@H](O)[C@@H](C)CN5C(=O)C([C@@H](C)O)NC(=O)C([C@H](O)[C@@H](O)c5ccc(O)cc5)NC(=O)C5C[C@@H](O)CN5C(=O)C([C@@H](C)O)NC4=O)cc3)cc2)cc1 (stereo partly drawn) [compound 10] ? Its Mean log10 CFU/kidneys (±SEM) was 4.89

So, CCCCCOc1ccc(-c2ccc(-c3ccc(C(=O)N[C@H]4C[C@@H](O)C(NCCNCCN)NC(=O)C5[C@@H](O)[C@@H](C)CN5C(=O)C([C@@H](C)O)NC(=O)C([C@H](O)[C@@H](O)c5ccc(O)cc5)NC(=O)C5C[C@@H](O)CC5C(=O)C([C@@H](C)O)NC4=O)cc3)cc2)cc1 (stereo partly drawn) [compound 17] ? Its Mean log10 CFU/kidneys (±SEM) was 3.46

So, CCCCCOc1ccc(-c2ccc(-c3ccc(C(=O)N[C@H]4C[C@@H](O)C(NCCOC)NC(=O)C5[C@@H](O)[C@@H](C)CN5C(=O)C([C@@H](C)O)NC(=O)C([C@H](O)[C@@H](O)c5ccc(O)cc5)NC(=O)C5C[C@@H](O)CN5C(=O)C([C@@H](C)O)NC4=O)cc3)cc2)cc1 (stereo partly drawn) [compound 8] ? Its Mean log10 CFU/kidneys (±SEM) was 4.78

So, CCCCCOc1ccc(-c2ccc(-c3ccc(C(=O)N[C@H]4C[C@@H](O)C(NCCOCCOC)NC(=O)C5[C@@H](O)[C@@H](C)CN5C(=O)C([C@@H](C)O)NC(=O)C([C@H](O)[C@@H](O)c5ccc(O)cc5)NC(=O)C5C[C@@H](O)CN5C(=O)C([C@@H](C)O)NC4=O)cc3)cc2)cc1 (stereo partly drawn) [compound 9] ? Its Mean log10 CFU/kidneys (±SEM) was 5.04

So, CCCCCOc1ccc(-c2ccc(-c3ccc(C(=O)N[C@H]4C[C@@H](O)C(OCCNCCN)NC(=O)C5[C@@H](O)[C@@H](C)CN5C(=O)C([C@@H](C)O)NC(=O)C([C@H](O)[C@@H](O)c5ccc(O)cc5)NC(=O)C5C[C@@H](O)CN5C(=O)C([C@@H](C)O)NC4=O)cc3)cc2)cc1 (stereo partly drawn) [compound 7] ? Its Mean log10 CFU/kidneys (±SEM) was 4.33

----------
- System: C. albicans R303
- test: mouse candidiasis infection model, IP administration, kidney fungal burden
- Format: in vivo
- cond: Second run; IP 4.5 mg/kg; kidneys 24 h after infection
- Method: The objective of these studies was to evaluate the efficacy of test compounds in the mouse candidiasis infection model. Amounts of test articles are uncorrected. […] In a typical procedure, the kidneys were collected from four mice in control group 1 (untreated) at 2 hr after infection, and from another four mice in control group 2 (untreated) at 24 hr after infection. […] The CFU/kidneys were determined from colony counts. […]
Please go through the items and note down their Mean log10 CFU/kidneys (±SEM).
State just the number; it will be interpreted in log10 CFU/kidneys.

The molecule CCCCCOc1ccc(-c2ccc(-c3ccc(C(=O)N[C@H]4C[C@@H](O)C(OCCN)NC(=O)C5[C@@H](O)[C@@H](C)CN5C(=O)C([C@@H](C)O)NC(=O)C([C@H](O)[C@@H](O)c5ccc(O)cc5)NC(=O)C5C[C@@H](O)CN5C(=O)C([C@@H](C)O)NC4=O)cc3)cc2)cc1 (stereo partly drawn) , when measured on C. albicans R303, yielded Mean log10 CFU/kidneys (±SEM) of 0.65

The molecule CCCCCOc1ccc(-c2ccc(-c3ccc(C(=O)N[C@H]4C[C@@H](O)C(OCC[N+](C)(C)C)NC(=O)C5[C@@H](O)[C@@H](C)CN5C(=O)C([C@@H](C)O)NC(=O)C([C@H](O)[C@@H](O)c5ccc(O)cc5)NC(=O)C5C[C@@H](O)CN5C(=O)C([C@@H](C)O)NC4=O)cc3)cc2)cc1 (stereo partly drawn) , when measured on C. albicans R303, yielded Mean log10 CFU/kidneys (±SEM) of 0.98

The molecule CCCCCOc1ccc(-c2ccc(-c3ccc(C(=O)N[C@H]4C[C@@H](O)C(OCCOCC[N+](C)(C)C)NC(=O)C5[C@@H](O)[C@@H](C)CN5C(=O)C([C@@H](C)O)NC(=O)C([C@H](O)[C@@H](O)c5ccc(O)cc5)NC(=O)C5C[C@@H](O)CN5C(=O)C([C@@H](C)O)NC4=O)cc3)cc2)cc1 (stereo partly drawn) , when measured on C. albicans R303, yielded Mean log10 CFU/kidneys (±SEM) of 0.00

----------
Please go through the items and note down their log reduction at 4.5 mg/kg.
- Test system: C. albicans R303
- test: mouse candidiasis infection model, IP administration, kidney fungal burden
- Assay type: in vivo
- cond: Candida albicans, R303, ip, 24 h, Third run; IP 4.5 mg/kg; read-out: Difference from 24-h control
// return a plain number; no unit text

So, CCC(C)CC(C)CCCCCCCCC(=O)N[C@H]1C[C@@H](O)C(NCCOCCOCCN)NC(=O)C2[C@@H](O)CCN2C(=O)C([C@H](O)CCN)NC(=O)C([C@H](O)[C@@H](O)c2ccc(O)cc2)NC(=O)C2C[C@@H](O)CC2C(=O)C([C@@H](C)O)NC1=O (some centres unmarked) ? Its log reduction at 4.5 mg/kg was 4.03

So, CCC(C)CC(C)CCCCCCCCC(=O)N[C@H]1C[C@@H](O)C(NCCNCCN)NC(=O)C2[C@@H](O)CCN2C(=O)C([C@H](O)CCN)NC(=O)C([C@H](O)[C@@H](O)c2ccc(O)cc2)NC(=O)C2C[C@@H](O)CC2C(=O)C([C@@H](C)O)NC1=O (some centres unmarked) ? Its log reduction at 4.5 mg/kg was 4.55

So, CC[C@H](C)C[C@H](C)CCCCCCCCC(=O)N[C@H]1C[C@@H](O)[C@@H](NCCN)NC(=O)[C@@H]2[C@@H](O)CCN2C(=O)[C@H]([C@H](O)CCN)NC(=O)[C@H]([C@H](O)[C@@H](O)c2ccc(O)cc2)NC(=O)[C@@H]2C[C@@H](O)CN2C(=O)[C@H]([C@@H](C)O)NC1=O [caspofungin, reference compound] ? Its log reduction at 4.5 mg/kg was 5.2

So, CCC(C)CC(C)CCCCCCCCC(=O)N[C@H]1C[C@@H](O)C(NCCNCCO)NC(=O)C2[C@@H](O)CCN2C(=O)C([C@H](O)CCN)NC(=O)C([C@H](O)[C@@H](O)c2ccc(O)cc2)NC(=O)C2C[C@@H](O)CC2C(=O)C([C@@H](C)O)NC1=O (some centres unmarked) ? Its log reduction at 4.5 mg/kg was 4.03

So, CCC(C)CC(C)CCCCCCCCC(=O)N[C@H]1C[C@@H](O)C(NCCOCCN)NC(=O)C2[C@@H](O)CCN2C(=O)C([C@H](O)CCN)NC(=O)C([C@H](O)[C@@H](O)c2ccc(O)cc2)NC(=O)C2C[C@@H](O)CC2C(=O)C([C@@H](C)O)NC1=O (some centres unmarked) ? Its log reduction at 4.5 mg/kg was 3.75
